# Tested on: Saccharomyces cerevisiae;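 also: PSI is a weighted mean of sequencing reads over stability bins, variants kept only with over 10 reads, mCherry proximal and sfGFP distal, peptide attached via GGGS linker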
# assay explanation: protein stability index of tFT-peptide fusion (C-terminal peptide) (PSI (0-1 scale)); higher = more stable (slower turnover)
# cond: genetic background: wild type; temperature: 30 C
Label Met when protein stability index is at or above 0.7; otherwise label Not met.

- primary sequence: "PTRPPSLPRIPP"
  answer label: "Not met"
- primary sequence: "HLSNSCLHGVSG"
  answer label: "Not met"
- primary sequence: "LPLVSLLCLLPR"
  answer label: "Not met"
- primary sequence: "SSVCPWACPPPP"
  answer label: "Not met"
- primary sequence: "RPPRPGFCLFLP"
  answer label: "Not met"
- primary sequence: "FHFLNLLIPFPR"
  answer label: "Met"
- primary sequence: "WGWSGGEDCLEG"
  answer label: "Not met"
- primary sequence: "SRGMERIWEFGR"
  answer label: "Not met"
- primary sequence: "LYVLHCSLIEEV"
  answer label: "Not met"
- primary sequence: "TVIDVIKLMLHL"
  answer label: "Not met"
- primary sequence: "HHHPGQKCKIKG"
  answer label: "Met"
- primary sequence: "VCLLGWGVRLVS"
  answer label: "Not met"
- primary sequence: "RPRGRGRSRGDT"
  answer label: "Not met"
- primary sequence: "GSCTPLPSIDFD"
  answer label: "Not met"
- primary sequence: "ASVLFILAIPDL"
  answer label: "Not met"
- primary sequence: "PPLTRRSTLMSY"
  answer label: "Not met"
- primary sequence: "TKILRGQKRRAA"
  answer label: "Not met"
- primary sequence: "FPILLASRPSSP"
  answer label: "Not met"
- primary sequence: "DDVRFLLWGLCC"
  answer label: "Not met"
- primary sequence: "PPFPPPPRPPSS"
  answer label: "Not met"
- primary sequence: "GRVEDAFSGGGI"
  answer label: "Not met"
- primary sequence: "ACPQPSPSPSQY"
  answer label: "Not met"
- primary sequence: "PLVPSPSPPPAR"
  answer label: "Met"
- primary sequence: "KGLKRNENGTMS"
  answer label: "Not met"
- primary sequence: "RKLNEKTRYKRR"
  answer label: "Met"
- primary sequence: "QVSHLFAAVQLA"
  answer label: "Not met"
- primary sequence: "PPLVPPTPAFPP"
  answer label: "Not met"
- primary sequence: "HPARPRPRLALS"
  answer label: "Not met"
- primary sequence: "QLDRRKDSLLRH"
  answer label: "Met"
- primary sequence: "KKKEKKKKNKLK"
  answer label: "Met"
- primary sequence: "RVLSWSGRQSWC"
  answer label: "Not met"
- primary sequence: "FDACPAPFGLVV"
  answer label: "Not met"
- primary sequence: "WCFFFVGCCCFG"
  answer label: "Not met"
- primary sequence: "LFPPPPSPLGHS"
  answer label: "Met"
- primary sequence: "ARAGLVGDARGM"
  answer label: "Not met"
- primary sequence: "CPRRGSHLARLL"
  answer label: "Not met"
- primary sequence: "RNKRKKNKDKIK"
  answer label: "Not met"
- primary sequence: "PPTSPSNALPFA"
  answer label: "Not met"
- primary sequence: "WLRCGCVKWAGG"
  answer label: "Not met"
- primary sequence: "NNRKKKGRRRQE"
  answer label: "Not met"
- primary sequence: "VGVAGGRGEEEL"
  answer label: "Met"
- primary sequence: "AFCGRRGHQFYN"
  answer label: "Not met"
- primary sequence: "LFPVFFPLFAPA"
  answer label: "Not met"
- primary sequence: "FGVVLAGAGWGG"
  answer label: "Not met"
- primary sequence: "LYNVTRDTWVLS"
  answer label: "Not met"
- primary sequence: "PPPLSPPTPPPP"
  answer label: "Not met"
- primary sequence: "VGACGEYGGFFR"
  answer label: "Not met"
- primary sequence: "PPAPPPPTGLCL"
  answer label: "Met"
- primary sequence: "HGVRLHTVWVGG"
  answer label: "Not met"
